For each entry below, report its log kw, IAM value.
# assay.remarks: RP-HPLC retention on IAM.PC.DD2 (immobilized artificial membrane) column, buffer pH 7.4-acetonitrile
# Format: physicochemical
# experimental.parameters: extrapolated to buffer pH 7.4 as mobile phase, 25 °C

Return value of log kw, IAM for input CCOC(=O)Cc1nnc2n(c1=O)CCN2c1ccc(C)cc1 , no commentary.
1.70

Supply reported log kw, IAM belonging to this compound: O=c1c(Cc2cccc(Cl)c2)nnc2n1CCN2c1ccc(Cl)cc1
3.15

For the compound Cc1ccc(N2CCn3c2nnc(Cc2ccccc2Cl)c3=O)cc1 , report log kw, IAM.
2.65

Supply recorded log kw, IAM for O=c1c(-c2ccccc2)nnc2n1CCN2c1ccc(Cl)c(Cl)c1 here.
3.26

Using known records, supply log kw, IAM for CCc1nnc2n(c1=O)CCN2c1ccc(C)cc1
1.00

Quickly give me recorded log kw, IAM for CCOC(=O)Cc1nnc2n(c1=O)CCN2c1ccc(Cl)cc1
2.11

Provide log kw, IAM value for the following compound: Cc1ccc(N2CCn3c2nnc(Cc2ccccc2)c3=O)cc1
2.15

Quote log kw, IAM reported for CCOC(=O)Cc1nnc2n(c1=O)CCN2c1ccc(Cl)c(Cl)c1 please.
2.42

Entry O=c1c(CCc2ccccc2)nnc2n1CCN2c1ccccc1 needs its log kw, IAM filled in; supply it.
2.07

Identify the reported log kw, IAM for the following entry. COC(=O)Cc1nnc2n(c1=O)CCN2c1ccc(OC)cc1
0.81

----------
# assay.remarks: RP-HPLC retention on IAM.PC.DD2 (immobilized artificial membrane) column, buffer pH 7.4-acetonitrile
# Assay type: physicochemical
# experimental.parameters: extrapolated to buffer pH 7.4 as mobile phase, 25 °C
Exercise: for every item that follows, state its recorded log kw, IAM.
Reply briefly: the number, and no unit.

Please give the documented log kw, IAM of O=c1c(Cc2ccccc2Cl)nnc2n1CCN2c1ccccc1
2.34

Please supply the value of reported log kw, IAM for the item CCc1nnc2n(c1=O)CCN2c1cccc(Cl)c1
0.84

Give the reported log kw, IAM for this compound. CCOc1ccc(N2CCn3c2nnc(Cc2cccc(Cl)c2)c3=O)cc1
2.73

Respond only with log kw, IAM recorded for Cc1ccccc1N1CCn2c1nnc(-c1ccccc1)c2=O
1.53

Give the value of log kw, IAM reported for the following: O=c1c(Cc2ccccc2)nnc2n1CCN2c1ccccc1
3.26

Please supply the value of reported log kw, IAM for the item O=c1c(Cc2ccccc2Cl)nnc2n1CCN2c1ccc(Cl)cc1
3.22

Give the reported value of log kw, IAM for this record: CCc1nnc2n(c1=O)CCN2c1ccc(Cl)cc1
1.24

Return log kw, IAM (reported value) for this compound: COC(=O)Cc1nnc2n(c1=O)CCN2c1ccc(C)cc1
1.33

Complete the entry with log kw, IAM for O=c1c(CCc2ccccc2)nnc2n1CCN2c1ccc(Cl)c(Cl)c1
3.40

Give the reported value of log kw, IAM for this record: COc1ccc(N2CCn3c2nnc(-c2ccccc2)c3=O)cc1
1.71

Annotate the compound CCOc1ccc(N2CCn3c2nnc(Cc2ccccc2)c3=O)cc1 with its measured log kw, IAM.
2.11

Indicate its recorded log kw, IAM; the compound in question is Cc1ccc(N2CCn3c2nnc(-c2ccco2)c3=O)cc1
1.69

Output measured log kw, IAM for this item: CCOc1ccc(N2CCn3c2nnc(Cc2ccccc2Cl)c3=O)cc1
2.51

Return the recorded log kw, IAM value; entry: CCOc1ccc(N2CCn3c2nnc(-c2ccccc2)c3=O)cc1
2.14

State its log kw, IAM: COC(=O)Cc1nnc2n(c1=O)CCN2c1ccccc1
0.81

// Input: CCc1nnc2n(c1=O)CCN2c1ccccc1Cl . Output its log kw, IAM only.
0.80

Name the recorded log kw, IAM of the compound listed here: CCOc1ccc(N2CCn3c2nnc(CC(=O)OC)c3=O)cc1
1.42

Complete the entry with log kw, IAM for O=c1c(-c2ccco2)nnc2n1CCN2c1ccccc1
1.29

Please look at this compound and report its log kw, IAM: O=c1c(-c2ccco2)nnc2n1CCN2c1ccccc1Cl
1.27

// fetch log kw, IAM given entry Cc1ccc(N2CCn3c2nnc(-c2ccccc2)c3=O)cc1
2.22

----------
# assay.remarks: RP-HPLC retention on Purosphere RP-18e (ODS) column, buffer pH 7.4-acetonitrile
# Format: physicochemical
# experimental.parameters: slope of Soczewiński-Wachtmeister equation, acetonitrile φ 0.3–0.6
# Protocol: Retention parameters reported as the log k values were calculated by the expression:(1) logk=log(tR−t0)/t0 where tR and t0 are the retention times of the solute and a non-retained compound (citric acid), respectively. […] As mobile phases buffer-acetonitrile mixtures were used. […] With the ODS column acetonitrile concentration in the effluent, expressed as a volume fraction (φ, v/v), was changed in the range 0.3–0.6, with the constant step of 0.1. […] They were detected under UV light at 210 and 254 nm. […]
Could you please report measured s ODS for the items listed next?
Just the number.

Kindly indicate its recorded s ODS. Item: CCOC(=O)Cc1nnc2n(c1=O)CCN2c1ccccc1
3.61

Please supply the value of reported s ODS for the item CCc1nnc2n(c1=O)CCN2c1ccc(Cl)c(Cl)c1
4.49

Tell us which s ODS value is on record for Cc1ccc(N2CCn3c2nnc(Cc2cccc(C)c2)c3=O)cc1
5.24

Please give measured s ODS of the following entry: COC(=O)Cc1nnc2n(c1=O)CCN2c1ccc(OC)cc1
3.02

Report s ODS, nothing else, for this compound: O=c1c(Cc2cccc(Cl)c2)nnc2n1CCN2c1ccc(Cl)cc1
5.85

----------
Provide the reported log kw, Cholester of each item.
# assay.remarks: RP-HPLC retention on Cosmosil Cholester column, buffer pH 7.4-acetonitrile
# Format: physicochemical
# experimental.parameters: extrapolated to buffer pH 7.4 as mobile phase, 25 °C
Respond with the number and no other words.

Using the record for O=c1c(CCc2ccccc2)nnc2n1CCN2c1ccccc1 [Compound 61] , state its measured log kw, Cholester.
2.33

Please give the documented log kw, Cholester of O=c1c(Cc2ccccc2)nnc2n1CCN2c1ccccc1 [Compound 41]
2.23

Return log kw, Cholester (reported value) for this molecule: Cc1ccc(N2CCn3c2nnc(-c2ccccc2)c3=O)cc1 [Compound 32]
2.86

----------
# assay.remarks: RP-HPLC retention on Purosphere RP-18e (ODS) column, buffer pH 7.4-acetonitrile
# Assay type: physicochemical
# experimental.parameters: slope of Soczewiński-Wachtmeister equation, acetonitrile φ 0.3–0.6
# Protocol: Retention parameters reported as the log k values were calculated by the expression:(1) logk=log(tR−t0)/t0 where tR and t0 are the retention times of the solute and a non-retained compound (citric acid), respectively. […] As mobile phases buffer-acetonitrile mixtures were used. […] With the ODS column acetonitrile concentration in the effluent, expressed as a volume fraction (φ, v/v), was changed in the range 0.3–0.6, with the constant step of 0.1. […] They were detected under UV light at 210 and 254 nm. […]
Criterion: s ODS meeting or surpassing 5. Met: YES. Not met: NO.

Threshold query (s ODS >= 5) on CCOC(=O)Cc1nnc2n(c1=O)CCN2c1ccc(C)cc1
NO

Hi team, for CCOc1ccc(N2CCn3c2nnc(Cc2ccc(Cl)cc2)c3=O)cc1 , is the recorded s ODS at or above 5?
YES

Reported s ODS at or above 5? CCOc1ccc(N2CCn3c2nnc(Cc2ccccc2)c3=O)cc1
YES

Check if s ODS >= 5 (inclusive). Item: Cc1ccc(N2CCn3c2nnc(Cc2ccc(Cl)cc2)c3=O)cc1
YES

Could you tell me if the measured s ODS of COc1ccccc1N1CCn2c1nnc(-c1ccco1)c2=O reaches 5 or more?
NO

Reported s ODS at or above 5? O=c1c(Cc2ccccc2Cl)nnc2n1CCN2c1ccc(Cl)cc1
YES

Item Cc1ccccc1N1CCn2c1nnc(-c1ccco1)c2=O with s ODS of 5 or above?
NO

Reported s ODS reaches at least 5 for COC(=O)Cc1nnc2n(c1=O)CCN2c1ccccc1 ?
NO

Hi, just wondering whether O=c1c(Cc2ccc(Cl)cc2)nnc2n1CCN2c1ccccc1 shows s ODS of 5 or higher.
YES

Test whether the compound COc1ccccc1N1CCn2c1nnc(-c1ccccc1)c2=O records s ODS of 5 or higher.
NO

s ODS >= 5 for CCOC(=O)Cc1nnc2n(c1=O)CCN2c1ccc(Cl)c(Cl)c1 ?
YES

Given the entry O=c1c(-c2ccccc2)nnc2n1CCN2c1ccc(Cl)cc1 , answer whether its s ODS meets or surpasses 5.
YES

Reported s ODS reaches at least 5 for O=c1c(-c2ccccc2)nnc2n1CCN2c1ccccc1Cl ?
NO

Could you please find out whether CCOc1ccc(N2CCn3c2nnc(Cc2ccc(C)cc2)c3=O)cc1 has s ODS that meets 5 or exceeds it?
YES

Item Cc1ccccc1N1CCn2c1nnc(-c1ccccc1)c2=O with s ODS of 5 or above?
NO

Check if s ODS >= 5 (inclusive). Item: COc1ccc(N2CCn3c2nnc(-c2ccccc2)c3=O)cc1
NO

Reported s ODS at or above 5? CCOc1ccc(N2CCn3c2nnc(CC(=O)OC)c3=O)cc1
NO

Check if s ODS >= 5 (inclusive). Item: O=c1c(-c2ccco2)nnc2n1CCN2c1ccc(Cl)c(Cl)c1
YES

# check: s ODS of Cc1cccc(N2CCn3c2nnc(-c2ccco2)c3=O)c1C is greater than or equal to 5
NO

Please check the record CCOc1ccc(N2CCn3c2nnc(Cc2cccc(Cl)c2)c3=O)cc1 and state if its s ODS is at or above 5.
YES

Form field: s ODS at least 5? Entry: O=c1c(-c2ccco2)nnc2n1CCN2c1cccc(Cl)c1
NO

Say whether O=c1c(-c2ccco2)nnc2n1CCN2c1ccccc1 shows s ODS of 5 or more.
NO
